# experimental-protocol: in vivo
# measurement-setup: male, Sprague-Dawley, rat, iv
Where a name gives a salt, the structure may show the parent alone.
readout-name: Kp at 4 h

> print(dat)
                                   molecule  result
1  CC12CC3CC(C)(C1)CC(N)(C3)C2 [Memantine, memantine hydrochloride]    41.7
